# GLP1 secretion stimulation values compiled below
# Experiment: glucagon-like peptide 1 release enhancers, primary assay, NCI-H716 cell line, NPC library (AID 1117341); note: reference of the scale not given here
# Condition description: NCI-H716 cells, at 10 µM, stronger effect = higher value

{"Compound": "CCS(=O)(=O)C(C)(C)S(=O)(=O)CC", "GLP1 secretion stimulation (%)": -1.4}
{"Compound": "CCC1(C2=NCCN2)Cc2ccccc2O1 (configuration not stated)", "GLP1 secretion stimulation (%)": 2.2}
{"Compound": "C[N+](C)(C)CCOC(=O)C(O)(c1ccccc1)c1ccccc1", "GLP1 secretion stimulation (%)": -2.6}
{"Compound": "O=c1[nH]oc2c1CCNC2", "GLP1 secretion stimulation (%)": 0.6}
{"Compound": "ClC1=C(Cl)C2(Cl)C(CBr)CC1(Cl)C2(Cl)Cl (configuration not stated)", "GLP1 secretion stimulation (%)": 16.3}
{"Compound": "Cc1ccc2c(c1)C1CN(C)CCC1N2 (configuration not stated)", "GLP1 secretion stimulation (%)": 6.1}
{"Compound": "NCCC[C@H](N)C(=O)O", "GLP1 secretion stimulation (%)": 1.4}
{"Compound": "CCOP(=S)(OCC)Oc1ccc2c(C)c(Cl)c(=O)oc2c1", "GLP1 secretion stimulation (%)": 2.3}
{"Compound": "Cc1ccc(S(=O)(=O)N[C@@H](CCCCN)C(=O)CCl)cc1", "GLP1 secretion stimulation (%)": -1.9}
{"Compound": "C[C@H]1O[C@@H](O[C@H]2[C@@H](O)C[C@H](O[C@H]3[C@@H](O)C[C@H](O[C@H]4CC[C@@]5(C)[C@H](CC[C@@H]6[C@@H]5CC[C@]5(C)[C@@H](C7=CC(=O)OC7)CC[C@]65O)C4)O[C@@H]3C)O[C@@H]2C)C[C@H](O)[C@@H]1O", "GLP1 secretion stimulation (%)": 11.6}
{"Compound": "O=[N+]([O-])/N=C1\\NCCN1Cc1ccc(Cl)nc1", "GLP1 secretion stimulation (%)": -2}
{"Compound": "C[C@]12CC[C@H](O)CC1=CC[C@@H]1[C@@H]2CC[C@]2(C)C(=O)CC[C@@H]12", "GLP1 secretion stimulation (%)": 1.9}
{"Compound": "CCCCCCCCCCCCCCCC[N+](C)(C)C", "GLP1 secretion stimulation (%)": 40.8}
{"Compound": "CC(C)=CC1C(C(=O)OCc2cccc(Oc3ccccc3)c2)C1(C)C (configuration not stated)", "GLP1 secretion stimulation (%)": 1.7}
{"Compound": "CCC1(c2cccc(O)c2)CCCCN(C)C1 (configuration not stated)", "GLP1 secretion stimulation (%)": 1.4}
{"Compound": "CCCCC/C=C\\C/C=C\\C/C=C\\C/C=C\\CCCC(=O)NCC(=O)O", "GLP1 secretion stimulation (%)": 5}
{"Compound": "O=[N+]([O-])c1cc(I)c(O)c(I)c1", "GLP1 secretion stimulation (%)": -1}
{"Compound": "COc1ccc(OC)c(C(O)C(C)N)c1 (configuration not stated)", "GLP1 secretion stimulation (%)": -3.9}
{"Compound": "O=C(O)C(Cl)Cl", "GLP1 secretion stimulation (%)": -2}
{"Compound": "CC(=O)Nc1cc([As](=O)(O)O)ccc1O", "GLP1 secretion stimulation (%)": -0.8}
{"Compound": "COCC(=O)N(c1c(C)cccc1C)C(C)C(=O)OC (configuration not stated)", "GLP1 secretion stimulation (%)": 1.9}
{"Compound": "CN1C(=O)CN=C(c2ccccc2)c2cc([N+](=O)[O-])ccc21", "GLP1 secretion stimulation (%)": 3.3}
{"Compound": "C=C(C)[C@H]1Cc2c(ccc3c2O[C@@H]2COc4cc(OC)c(OC)cc4[C@@H]2C3=O)O1", "GLP1 secretion stimulation (%)": 2.2}
{"Compound": "CC(=O)C1CCOC1=O (configuration not stated)", "GLP1 secretion stimulation (%)": 2.7}
{"Compound": "CC1Sc2c(C(=O)O)c(=O)c3cc(F)c(N4CCNCC4)cc3n21 (configuration not stated)", "GLP1 secretion stimulation (%)": 2.3}
{"Compound": "CCN(Cc1ccc(Cl)nc1)/C(=C/[N+](=O)[O-])NC", "GLP1 secretion stimulation (%)": -4.7}
{"Compound": "O=C1c2ccccc2C(=O)c2ccccc21", "GLP1 secretion stimulation (%)": 1.9}
{"Compound": "CN1CCC(N(Cc2ccccc2)c2ccccc2)CC1", "GLP1 secretion stimulation (%)": 14.3}
{"Compound": "Oc1ccc(Cl)cc1Cc1ccccc1", "GLP1 secretion stimulation (%)": 38}
{"Compound": "CC(CCc1ccccc1)NC(C)C(O)c1ccc(O)cc1 (configuration not stated)", "GLP1 secretion stimulation (%)": -0.5}
{"Compound": "O=C(NC(O)C(Cl)(Cl)Cl)NC(O)C(Cl)(Cl)Cl (configuration not stated)", "GLP1 secretion stimulation (%)": 0.1}
{"Compound": "NCCc1ccc(O)cc1", "GLP1 secretion stimulation (%)": -1.8}
{"Compound": "COP(=O)(OC)C(O)C(Cl)(Cl)Cl (configuration not stated)", "GLP1 secretion stimulation (%)": -3.2}
{"Compound": "CCCOC(=O)Cc1ccc(OCC(=O)N(CC)CC)c(OC)c1", "GLP1 secretion stimulation (%)": -1.8}
{"Compound": "CC=CC1C(C(=O)OCc2c(F)c(F)c(COC)c(F)c2F)C1(C)C (configuration not stated)", "GLP1 secretion stimulation (%)": -3.8}
{"Compound": "Nc1ccccc1C(=O)OCC(O)CO (configuration not stated)", "GLP1 secretion stimulation (%)": -1.2}
{"Compound": "Cn1c(CCCC(=O)O)nc2cc(N(CCCl)CCCl)ccc21", "GLP1 secretion stimulation (%)": -0.7}
{"Compound": "O=C(CCl)c1ccc(Cl)cc1Cl", "GLP1 secretion stimulation (%)": -6.4}
{"Compound": "O=C1OC(c2ccc(O)c(S(=O)(=O)O)c2)(c2ccc(O)c(S(=O)(=O)O)c2)c2c(Br)c(Br)c(Br)c(Br)c21", "GLP1 secretion stimulation (%)": 6.8}
{"Compound": "O=c1c(C2CC(c3ccc(-c4ccc(Br)cc4)cc3)Cc3ccccc32)c(O)sc2ccccc12 (configuration not stated)", "GLP1 secretion stimulation (%)": 4.8}
{"Compound": "Nc1nc(N)nc(NC2CC2)n1", "GLP1 secretion stimulation (%)": 2.4}
{"Compound": "O=C(O)c1cc(Oc2ccc(C(F)(F)F)cc2Cl)ccc1[N+](=O)[O-]", "GLP1 secretion stimulation (%)": 3.1}
